- study-target: T1, human MSLN-R3-his protein (human, UniProt Q13421 487-598)
- T1 construct: it is put last here; also called human MSLN-R3 protein; hMSLN-R3-his; not shown: His tag
- T1 sequence (Q13421 495-606): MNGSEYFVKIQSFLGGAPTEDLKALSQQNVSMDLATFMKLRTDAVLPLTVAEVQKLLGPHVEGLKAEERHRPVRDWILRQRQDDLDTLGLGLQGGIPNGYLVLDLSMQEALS
- protocol-notes: ELISA on coated antigen, antibody 200 nM
I'd appreciate it if you could supply OD450 values for the items below.
One number for each entry, in OD.

Example results:
1. S009-F7.2.3 (antibody, human IgG1, kappa, V domains shown, Human-murine chimeric antibody, human IgG1 heavy and kappa light constant regions) VH: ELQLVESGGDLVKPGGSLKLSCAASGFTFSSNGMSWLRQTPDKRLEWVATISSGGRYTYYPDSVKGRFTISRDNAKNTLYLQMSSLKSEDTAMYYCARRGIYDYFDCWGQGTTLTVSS VL: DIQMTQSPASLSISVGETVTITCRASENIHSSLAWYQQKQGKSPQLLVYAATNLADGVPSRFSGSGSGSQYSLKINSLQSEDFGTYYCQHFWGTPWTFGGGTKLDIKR : 0.2
2. S009-F7.11.11 (antibody, human IgG1, kappa, V domains shown, Human-murine chimeric antibody, human IgG1 heavy and kappa light constant regions) VH: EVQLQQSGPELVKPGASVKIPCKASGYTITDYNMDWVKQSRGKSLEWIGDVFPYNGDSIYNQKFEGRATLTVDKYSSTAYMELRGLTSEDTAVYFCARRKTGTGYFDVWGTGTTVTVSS VL: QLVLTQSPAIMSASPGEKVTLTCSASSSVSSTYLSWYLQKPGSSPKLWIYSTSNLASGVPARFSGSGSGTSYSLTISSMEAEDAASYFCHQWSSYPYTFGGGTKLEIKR : 3.12
3. S009-F7.26.15 (antibody, human IgG1, kappa, V domains shown, Human-murine chimeric antibody, human IgG1 heavy and kappa light constant regions) VH: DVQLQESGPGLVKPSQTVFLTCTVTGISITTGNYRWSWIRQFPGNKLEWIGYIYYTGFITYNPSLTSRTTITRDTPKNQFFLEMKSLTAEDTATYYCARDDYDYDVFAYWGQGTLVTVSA VL: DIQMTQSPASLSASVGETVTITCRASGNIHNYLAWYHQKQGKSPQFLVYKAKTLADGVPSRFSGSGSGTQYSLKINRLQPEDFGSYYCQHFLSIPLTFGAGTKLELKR : 2.74

API: the following record is the query input.
Ask: // OD450 lookup, key: S009-F7.69.8 (antibody, human IgG1, kappa, V domains shown, Human-murine chimeric antibody, human IgG1 heavy and kappa light constant regions) VH: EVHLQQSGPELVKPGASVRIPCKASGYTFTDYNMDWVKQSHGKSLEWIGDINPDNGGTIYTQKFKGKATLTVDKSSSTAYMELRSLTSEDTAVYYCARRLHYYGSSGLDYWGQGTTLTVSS VL: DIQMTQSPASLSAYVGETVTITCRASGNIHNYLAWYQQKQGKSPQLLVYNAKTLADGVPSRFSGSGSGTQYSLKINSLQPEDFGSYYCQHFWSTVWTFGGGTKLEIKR
Result: 2.56

Sourced from patent US20250250357A1
